For each of the binders below, state its EC50 (read off the curve).
- testedSystem: T1, human LAIR1 extracellular domain (ECD) protein with 6 HIS tag at the C-terminus (human, UniProt Q6GTX8 22-165)
- T1 construct: Produced recombinantly in HEK293 cells; the whole entry is named here; also called LAIR1 ECD; LAIR1-ECD
- T1 chain: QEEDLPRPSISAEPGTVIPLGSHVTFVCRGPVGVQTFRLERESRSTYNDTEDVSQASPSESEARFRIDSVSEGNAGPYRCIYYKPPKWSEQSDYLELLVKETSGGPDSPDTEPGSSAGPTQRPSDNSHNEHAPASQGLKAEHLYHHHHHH
- methodDescription: ELISA, LAIR1 ECD coated

Identify EC50 (read off the curve) associated with the binder LA-121 (antibody, V domains shown, Rabbit monoclonal IgG) VH: EQSVEESGGRLVTPGTPLTLTCTASGFSLYKYNIQWVRQAPGKGLEYIGASTYAGYTYYASWAIGRVTISRTSTTVDLKMTSPTTEDTATYFCARHIDGDYSGYALWGPGTLVTISS VL: ELDLTQTPASVSAAVGGTVTIKCQASQSIDTWFGWYQQKPGQSPKLLIYGASKLASGVPPRFKGSGSGTEFTLTISDLECADAATYYCQNTYYGVRYLGGAFGGGTEVEIK
~0.03 µg/mL

// fetch EC50 (read off the curve) given entry LA-258-3 (antibody, V domains shown, Rabbit monoclonal IgG) VH: QSVKESGGDLVKPEGSLTLTCKASGFSFSNSYYMCWVRQAPGKGLEWIACIYTGSTSGTYYASWVNGRFTISKTPSTTVTLQMTSLTVADTATYFCSRKLTNFNGAYLDLWGPGTLVTISS VL: ELVLTQTPASVEAAVGGTVTINCQASQSISNLLAWYQQKPGQPPKVLIYKASTLASGVPSRFKGSGSGTDFTLTISDLECADAATYYCQANNGGSDNNFGGGTEVVVKA
~0.05 µg/mL

Return reported EC50 (read off the curve). Input binder: LA-37 (antibody, V domains shown, Rabbit monoclonal IgG; also called mAb LA-37) VH: EQSLEESGGDLVKPGASLTLTCKASGFSFSSSEFMCWVRQAPGKGLEWIACIYGGLSDDTYFASWAKGRFTISKTSSITVTLQMTSLTAADTATYFCARSCDVNYYGFDPWGPGTLVTISS VL: ELVLTQTPAPVSAAVGDTVTIKCQASQNKGTNLAWYQQKPGQPPKLLIYLSSTLASGVPPRFKGSRSGTEYTLTISDLECADAATYFCQSTYYGSNGLTFGGGTEVEIK
~0.008 µg/mL
